testSummary: basal HepG2 mitochondrial membrane potential changes, profiling panel, cell-based, JC-1 fluorescence, 24 h, 100 nL compound (AID 1167); further: test concentration not given here
testSettings: higher = more signal
quantityName: z-score
Answers are plain numbers.

The examples below pair each entry with its known result.
{"molSmiles": "O=C1N(CCS(=O)(=O)c2ccccc2)Cc2ccccc2C[C@]12N=C(c1ccc(OCCCO)cc1)O[C@@H]2c1ccccc1", "measurement": -0.589}
{"molSmiles": "CC(C)NC(=O)[C@@H]1c2ccccc2C(=O)N(Cc2ccccc2)[C@H]1c1ccc(CO)cc1", "measurement": 0.681}
{"molSmiles": "COc1ccc([Si](C)(C)[C@H]2[C@H](CCn3cc([C@H](O)c4ccccc4)nn3)O[C@@]3(C(=O)N(Cc4cccc(N5CCC5=O)c4)c4ccccc43)[C@@H]2C)cc1", "measurement": 0.906}

// input: 2 compounds below; output: z-score for each
1. CC(C)N1C(=O)C[C@@](C(=O)NCc2ccccc2)(c2ccc([N+](=O)[O-])cc2)[C@H]1c1ccc(CO)cc1
2. O=C1c2ccccc2[C@@]2(Cc3ccccc3N(Cc3ccccc3)C2=O)[C@H](c2ccc(CO)cc2)N1C1CCCCC1

1: 0.924; 2: -0.689
